- Assay System: recombinant human β-secretase (rhBACE-1) (Homo sapiens)
- Sequence (P56817 46-501): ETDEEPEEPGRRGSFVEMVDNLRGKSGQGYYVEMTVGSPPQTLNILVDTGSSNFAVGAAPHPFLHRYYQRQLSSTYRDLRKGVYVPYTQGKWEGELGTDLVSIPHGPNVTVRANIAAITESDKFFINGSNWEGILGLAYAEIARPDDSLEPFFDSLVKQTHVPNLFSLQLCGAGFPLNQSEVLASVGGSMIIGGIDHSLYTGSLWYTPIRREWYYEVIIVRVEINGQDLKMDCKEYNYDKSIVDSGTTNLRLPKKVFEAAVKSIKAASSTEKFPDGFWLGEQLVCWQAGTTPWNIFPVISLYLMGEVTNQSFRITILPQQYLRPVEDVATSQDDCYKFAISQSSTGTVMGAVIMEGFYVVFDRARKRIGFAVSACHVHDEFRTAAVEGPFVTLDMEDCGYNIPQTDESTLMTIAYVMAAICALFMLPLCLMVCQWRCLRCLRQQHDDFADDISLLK
- Assay Notes: Measurement of 50% inhibition concentration (IC50) of β-secretase (BACE-1) enzyme, fluorescent substrate peptide
- Stated Conditions: rhBACE-1, pH 4.5, 37° C., 2.5 hr
Test Readout: IC50 (µM)

// sample COc1ccc([N+](=O)[O-])c(/C=C/C(=O)CC(=O)/C=C/c2ccc(O)cc2)c1 , its IC50 was 1.2

// sample COc1cc(/C=C/C(=O)CC(=O)/C=C/c2ccc(O)cc2)ccc1[N+](=O)[O-] , its IC50 was 16

(A) Nc1ccc(OCc2ccccc2)cc1/C=C/C(=O)CC(=O)/C=C/c1ccc(O)cc1
(B) O=C(/C=C/c1ccc(O)cc1)CC(=O)/C=C/c1cc(OCc2ccccc2)ccc1[N+](=O)[O-]
Which of the two gives a bigger number for IC50: A or B ? To answer, give the label that identifies your chosen option.
A

(I) O=C(/C=C/c1ccc(O)cc1)CC(=O)/C=C/c1cc(O)ccc1[N+](=O)[O-]
(II) Nc1ccc(O)cc1/C=C/C(=O)CC(=O)/C=C/c1ccc(O)cc1
// select label with min value of measured IC50 from [ I , II ] To answer, give the label that identifies your chosen option.
I
(I: 0.91 µM, II: 7.3 µM)

---

Reported values of melting point for individual entries

// sample O=C(/C=C/c1ccc(O)cc1)CC(=O)/C=C/c1cc(O)ccc1[N+](=O)[O-] , its melting point was 187 to 194 °C

// sample [N-]=[N+]=Nc1ccccc1/C=C/C(=O)CC(=O)/C=C/c1ccc(O)cc1 , its melting point was 153 to 161 °C

// sample CN(C)S(=O)(=O)c1ccccc1/C=C/C(=O)CC(=O)/C=C/c1ccc(O)cc1 , its melting point was 86 to 90 °C

// sample O=C(/C=C/c1ccc2cc[nH]c2c1)CC(=O)/C=C/c1cc(OCc2ccccc2)ccc1[N+](=O)[O-] , its melting point was 181 to 186 °C

// sample CCOC(=O)Cn1cc(-c2ccccc2/C=C/C(=O)CC(=O)/C=C/c2ccc(O)cc2)nn1 , its melting point was 99 to 105 °C

Further cases:
// sample CCOC(=O)Cn1nncc1-c1ccccc1/C=C/C(=O)CC(=O)/C=C/c1ccc(O)cc1 , its melting point was 169 to 174 °C

// sample COc1cc(/C=C/C(=O)CC(=O)/C=C/c2cc(O)ccc2[N+](=O)[O-])ccc1O , its melting point was 147 to 152 °C

// sample O=C(/C=C/c1ccc(O)cc1Cl)CC(=O)/C=C/c1ccc(O)cc1Cl , its melting point was 248 to 254 °C

---

Test Readout: melting point

// sample COc1ccc([N+](=O)[O-])c(/C=C/C(=O)CC(=O)/C=C/c2ccc(O)cc2)c1 [CU481] , its melting point was 151 to 155 °C

// sample COc1cc(/C=C/C(=O)CC(=O)/C=C/c2ccc(O)cc2)ccc1[N+](=O)[O-] [CU050] , its melting point was 190 to 192 °C

// sample CN(C)c1ccc(/C=C/C(=O)CC(=O)/C=C/c2ccc(O)cc2)c([N+](=O)[O-])c1 [CU194] , its melting point was 217 to 222 °C

// sample CN(C)c1ccc(/C=C/C(=O)CC(=O)CCc2ccc(O)cc2)c([N+](=O)[O-])c1 [CU523] , its melting point was 136 to 142 °C

// sample CN(C)CCOc1ccc(/C=C/C(=O)CC(=O)/C=C/c2ccc(O)cc2)c(Cl)c1 [CU551] , its melting point was 170 to 173 °C

Further cases:
// sample O=C(/C=C/c1ccc(O)cc1)CC(=O)/C=C/c1ccccc1-c1ccccc1 [CU472] , its melting point was 180 to 188 °C

// sample O=C(/C=C/c1ccc(O)cc1)CC(=O)/C=C/c1ccc(O)cc1Br [CU671] , its melting point was 196 to 205 °C

// sample O=C(/C=C/c1ccc(O)cc1)CC(=O)/C=C/c1ccc(N2CCCCC2)cc1Br [CU1090] , its melting point was 238 to 248 °C

// sample CN(C)c1ccc(/C=C/C(=O)CC(=O)/C=C/c2cc(O)ccc2Br)c(Cl)c1 [CU609] , its melting point was 209 to 214 °C

// sample O=C(/C=C/c1ccc2cc[nH]c2c1)CC(=O)/C=C/c1cc(OCc2ccccc2)ccc1-c1ccccc1 [CU566] , its melting point was 178 to 183 °C

// sample O=C(/C=C/c1ccc(O)cc1)CC(=O)/C=C/c1ccccc1C(F)(F)F [CU467] , its melting point was 181 to 185 °C

// sample O=C(/C=C/c1ccc(O)cc1)CC(=O)/C=C/c1cc(Cl)ccc1-c1ccccc1 [CU641] , its melting point was 193 to 196 °C

// sample CCN(CC)c1ccc(/C=C/C(=O)CC(=O)/C=C/c2ccc(N(CC)CC)cc2OC(=O)c2ccccc2)c(OC(=O)c2ccccc2)c1 [CU427] , its melting point was 192 to 196 °C

// sample COc1ccc(O)cc1/C=C/C(=O)CC(=O)/C=C/c1cc(O)ccc1Br [CU608] , its melting point was 90 to 96 °C

All figures here come from patent US8552220B2.
